target: OTU domain-containing protein 3 (Homo sapiens); experiment: Validation of screening hits, potency titration, in vitro enzymatic, OTU domain-containing protein 3 DUB inhibitors (AID 1645868); conditions: purified OTUD3, ubiquitin-rhodamine cleavage fluorescence, 2 h
The source made the active and inactive calls.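 How the source made its calls: active means maximal percent inhibition of the deubiquitinase OTUD3 of at least 30% across the tested doses; inactive means the rest.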
Labels: t (active), f (inactive)

COMPOUND	ANSWER LABEL
Cc1cc(C(=O)N2CCOC3(CC=CCN(CCc4ccccc4)C3=O)C2)n2nccc2n1 (stereo not drawn)	f
Cc1ccc2[nH]c(=O)c(CN(CC3COCCO3)S(=O)(=O)c3ccc(F)cc3)cc2c1 (stereo not drawn)	t
O=C(NC1CCN(Cc2ccccc2)CC1)c1[nH]nc2c1COc1ccccc1-2	f
CCn1cnc2c(-c3ccccc3)cn(CC(=O)NCc3ccc4c(c3)OCO4)c2c1=O	f
CC1=C[C@H]2N(c3ccc(C)cc31)[C@H](C(=O)c1cccs1)[C@@H](C(=O)c1ccc(F)cc1)[C@]21C(=O)Nc2ccccc21	f
CC(C)Cn1cc(OC(=O)c2ccc(F)cc2)c2c1nc(-c1ccc(F)cc1)n1c3ccccc3nc21	f
COc1cc([C@@H]2c3cc4c(cc3C[C@@H]3COC(=O)[C@H]32)OCO4)cc(OC)c1OC	t
Cc1c(CC(=O)Nc2nn[nH]n2)c(=O)oc2cc3c(cc12)CCC1(CCCCC1)O3	f
Cc1nc(-c2noc(-c3ccncc3)n2)cn1CC(=O)N1CCN(c2ccc(F)cc2)CC1	f
O=C(Oc1ccc(-c2cnc3ccccc3n2)cc1)c1ccc(F)cc1	f
COc1ccc(-c2cc3nc(C)cc(Nc4ccc(F)cc4)n3n2)cc1OC	f
CC1CCN(c2cc(-n3cnc(C(=O)N4CCCCC4)c3)ncn2)CC1	f
COc1cc(-c2cc(C(=O)Nc3cc(C)[nH]n3)c3ccccc3n2)cc(OC)c1OC	f
CCOc1ccccc1NC(=O)COc1cc(OC)ccc1C(=O)c1ccccc1	f
O=C(NCc1ccco1)c1ccc2c(c1)N(Cc1cccc(F)c1)C(=O)c1ccccc1S2	f
Nc1c(C(=O)c2cccs2)oc2nc(-c3ccccc3)cc(-c3ccco3)c12	f
COc1cc2c(oc(=O)c3cc(C)cc(OC)c32)c2c([C@@H]3OC(C)[C@@H](O)[C@@](C)(O)C3O)ccc(O)c12 (stereo partly drawn)	f
COc1cccc(NC(=O)Nc2ccc(CCc3nc4ccccc4[nH]3)cc2)c1	t
COCCn1c(=S)[nH]c2cc(C(=O)NCCSCc3ccccc3)ccc2c1=O	f
O=C(Nc1cccc(N2CCCC2=O)c1)c1cccc2cccnc12	f
COc1ccc(C(=O)Nc2cc3c4c(c2)C(C)C(=O)N4CCC3)cc1 (stereo not drawn)	f
C[C@@H]1O[C@@H](O[C@H]2[C@H](O[C@H]3[C@H](O[C@H]4CC[C@@]5(C)[C@@H](CC[C@]6(C)[C@@H]5CC=C5[C@@H]7CC(C)(C)CC(=O)[C@]7(C)CC[C@]56C)[C@@]4(C)CO)O[C@H](C(=O)O)[C@@H](O)[C@@H]3O)OC[C@@H](O)[C@@H]2O)[C@H](O)[C@H](O)[C@H]1O	f
CCCc1nc2sc3c(NCCCN4CCOCC4)ncnc3c2c2c1CCC2	f
O=C1CC(c2ccco2)Cc2[nH]c(=O)c(-c3nc(-c4ccc(Cl)cc4)cs3)cc21 (stereo not drawn)	f
O=C(COc1ncnc2ccccc12)Nc1ccc2c(c1)OC1(CCCC1)O2	t
Cc1ccc2c(c1)[C@]1(C(=O)N2)[C@@H]2C(=O)N(c3cccc(C(F)(F)F)c3)C(=O)[C@@H]2C2CCCN21 (stereo partly drawn)	f
CC(C)c1ccc(C(C(=O)NC2CCCCC2)N(C(=O)c2cnccn2)c2cccc(F)c2)cc1 (stereo not drawn)	t
CNC(=O)C1CN(C(=O)c2ccc(OC)cc2)CC12CCCC2 (stereo not drawn)	f
Cc1nnc(NC(=O)C2CCN(c3ccc(S(N)(=O)=O)cc3[N+](=O)[O-])CC2)o1	t
Fc1ccc(Cc2nc(-c3ccc4nncn4c3)no2)cc1	f
O=C(NCc1ccc(-c2nc3cnccc3o2)cc1)c1ccccc1F	t
COc1ccc(CN2CCCC23CCCN(C(=O)CCc2cccnc2)C3)cc1F (stereo not drawn)	t
CC1=C(c2ccc(C)c(C)c2)S(=O)(=O)NC1=NCC(=O)NCCc1ccc(C)cc1	f
